# GI50 per record follows
- Tested on: DU-145 human prostate cancer cells
- MEASUREMENT DESCRIPTION: Antiproliferative assay
- Assay type: cell-based
- APPLIED CONDITIONS: Homo sapiens, DU-145, 96 h, read-out: GI50 DU-145
EXPERIMENTAL READOUT: GI50

compound="COc1ccc2c(c1)CCN(Cc1cc(OC)c(OC)c(OC)c1)C2 [Compound 20c]" tested_on="DU-145 human prostate cancer cells" experimental_readout=GI50 result="31000 nM"
compound="CCc1cc2c(cc1O)CCN(Cc1cc(Br)c(OC)c(OC)c1)C2 [Compound 14]" tested_on="DU-145 human prostate cancer cells" experimental_readout=GI50 result="1200 nM"
compound="COc1cc(CCN2CCc3cc(O)ccc3C2)cc(OC)c1OC [Compound 20j]" tested_on="DU-145 human prostate cancer cells" experimental_readout=GI50 result="> 100000 nM"
compound="CCc1cc2c(cc1OS(N)(=O)=O)CCN(Cc1cc(Br)c(OC)c(OC)c1)C2 [Compound 15]" tested_on="DU-145 human prostate cancer cells" experimental_readout=GI50 result="20 nM"
compound="CCOc1c(OC)cc(CN2CCc3cc(O)ccc3C2)cc1OC [Compound 20g]" tested_on="DU-145 human prostate cancer cells" experimental_readout=GI50 result="> 100000 nM"
compound="COc1cc2c(cc1OS(C)(=O)=O)CCN(Cc1cc(OC)c(OC)c(OC)c1)C2 [Compound 17c]" tested_on="DU-145 human prostate cancer cells" experimental_readout=GI50 result="220 nM"
compound="CCOc1cc(CN2CCc3cc(O)ccc3C2)cc(OCC)c1OCC [Compound 20h]" tested_on="DU-145 human prostate cancer cells" experimental_readout=GI50 result="> 100000 nM"
compound="COc1cc2c(cc1OC(C)=O)CCN(Cc1cc(OC)c(OC)c(OC)c1)C2 [Compound 17b]" tested_on="DU-145 human prostate cancer cells" experimental_readout=GI50 result="407 nM"
compound="COc1cc(CN2CCc3cc(OCc4ccccc4)ccc3C2)cc(OC)c1OC [Compound 20a]" tested_on="DU-145 human prostate cancer cells" experimental_readout=GI50 result="> 100000 nM"
compound="COc1cc(C(=O)N2CCc3cc(O)ccc3C2)cc(OC)c1OC [Compound 20i]" tested_on="DU-145 human prostate cancer cells" experimental_readout=GI50 result="> 100000 nM"

* * *

- Test system: DU-145 human prostate cancer cells
- MEASUREMENT DESCRIPTION: Antiproliferative assay
- Type: cell-based
- APPLIED CONDITIONS: Homo sapiens, DU-145, 96 h, read-out: GI50 DU-145
This section presents compounds with their documented GI50 values.
EXPERIMENTAL READOUT: GI50 (µM)

compound="COc1cc(CN2CCc3cc(O)ccc3C2)cc(Cl)c1OC [Compound 20e]" tested_on="DU-145 human prostate cancer cells" sign== measured_number=86
compound="COc1cc(CN2CCc3cc(O)ccc3C2)cc(Br)c1OC [Compound 20f]" tested_on="DU-145 human prostate cancer cells" sign== measured_number=35
compound="COc1cc(CN2CCc3cc(OS(N)(=O)=O)ccc3C2)cc(OC)c1OC [Compound 20d]" tested_on="DU-145 human prostate cancer cells" sign=> measured_number=100
compound="COc1cc(CN2CCc3cc(O)ccc3C2)cc(OC)c1OC [Compound 20b]" tested_on="DU-145 human prostate cancer cells" sign== measured_number=0.151
compound="COc1cc2c(cc1OC)CN(Cc1cc(OC)c(OC)c(OC)c1)CC2 [Compound 17a]" tested_on="DU-145 human prostate cancer cells" sign=> measured_number=100
